# STUDY_SYSTEM: Protein Wnt-3a (Mus musculus)
# Sequence (P27467 whole entry): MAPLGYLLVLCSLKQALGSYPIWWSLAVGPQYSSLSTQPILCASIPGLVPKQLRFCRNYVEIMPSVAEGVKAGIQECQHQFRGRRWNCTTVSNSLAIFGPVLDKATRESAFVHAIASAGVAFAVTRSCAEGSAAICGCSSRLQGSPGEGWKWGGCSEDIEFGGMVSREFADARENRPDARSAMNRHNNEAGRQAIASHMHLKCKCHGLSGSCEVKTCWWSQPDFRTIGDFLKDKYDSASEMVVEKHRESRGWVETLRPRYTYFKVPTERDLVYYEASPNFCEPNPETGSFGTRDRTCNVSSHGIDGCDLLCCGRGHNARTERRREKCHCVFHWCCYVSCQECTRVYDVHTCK
# ASSAY_OVERVIEW: Dual-Cell beta-Catenin Reporter Assay
# Description: Mouse L cells transfected to constitutively produce biologically active murine Wnt-3a, referred to as L-Wnt cells, were purchased from the American Type Culture Collection, ATCC, Manassas, Va. (ATCC). […] After a further 24 hours, cells are treated with One-glo luciferase assay system (Promega, Madison, Wis.) and the luminescent signal read by envision.
So I've got a bunch of compounds here, and I need their pIC50 values.
Reminder that pIC50 is minus the log10 of a molar concentration.

// pIC50 lookup, key: Cc1cc(-c2ccnc3c2cnn3CC(=O)Nc2ccc(-c3cnccn3)nc2)ccn1 8.52

Which pIC50 value is on record for Cc1cc(-c2nccc3c2ncn3CC(=O)Nc2ccc(-c3cnccn3)cn2)ccn1 ? 8.52
